Reported pIC50 values follow for various compounds
Test system: isolated rat portal vein
Assay: Isolated rat portal vein: inhibition of spontaneous contractile activities
Design: species or system rat (male Sprague Dawley)
Condition info: 0.25 h, 37° C., 15 min per concentration
Experimental: Male Sprague Dawley rats (250-300 g) are stunned and then bled after their throats have been cut. […] The vein is subjected to a tension of 500 mg. After a period of stabilization (about 1 h 30 min), the spontaneous contractile activities are recorded with the aid of an isometric sensor. […]
// scale note: pIC50 = -log10(conc_M); give the bare number

Study these solved cases before continuing.
CC1(C)C=C(n2ccccc2=O)c2cc(Br)ccc2O1    8.10
CC1(C)C=C(N2CCCC2=O)c2cc(C#N)ccc2O1    7.15

Query :: pIC50 of CC1(C)Oc2ccc([N+](=O)[O-])cc2[C@@H](n2ccccc2=O)[C@@H]1O (relative stereo) on isolated rat portal vein?
Result :: 7.80

Query :: Again, but for CC1(C)Oc2ccc(Cl)cc2[C@@H](n2ccccc2=O)[C@@H]1O (relative stereo)
Result :: 6.72
